Measured Activity values are reported for all entries that follow.
- Experimental Target: KiSS-1 receptor (Homo sapiens, UniProt Q969F8)
- Sequence (Q969F8 whole entry): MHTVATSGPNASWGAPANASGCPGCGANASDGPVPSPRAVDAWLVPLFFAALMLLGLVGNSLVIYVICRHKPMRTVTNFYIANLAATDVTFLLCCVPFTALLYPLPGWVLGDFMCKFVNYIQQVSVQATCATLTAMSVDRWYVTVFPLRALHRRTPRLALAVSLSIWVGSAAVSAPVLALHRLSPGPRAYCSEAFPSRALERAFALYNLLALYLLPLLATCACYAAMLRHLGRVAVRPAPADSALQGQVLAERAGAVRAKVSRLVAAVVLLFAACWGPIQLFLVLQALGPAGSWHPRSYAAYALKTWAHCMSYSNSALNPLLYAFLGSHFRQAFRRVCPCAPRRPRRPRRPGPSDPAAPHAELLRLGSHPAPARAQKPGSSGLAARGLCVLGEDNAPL
- Assay Method Text: Agonist activity at GPR54 expressed in CHO cells assessed as intracellular calcium mobilization at 10 nM relative to KP-10
- Type: functional, cell-based
Square brackets hold non-standard residues; d marks the D form. Peptide text beside a SMILES is read from it. Trx = NC[C@H]1CC[C@H](C(=O)O)CC1; 4Amb = NCc1ccc(C(=O)O)cc1; 3Abz = Nc1cccc(C(=O)O)c1; 4Abz = Nc1ccc(C(=O)O)cc1; 2Abz = Nc1ccccc1C(=O)O
The response must be a number in % with no trailing unit.

Compound: CC(C)C[C@H](NC(=O)CNC(=O)[C@H](Cc1ccccc1)NC(=O)c1ccc(N)cc1)C(=O)N[C@@H](CCCNC(=N)N)C(=O)N[C@@H](Cc1c[nH]c2ccccc12)C(N)=O (H-[4Abz]FGLRW-NH2)
Activity [%]: 90.4
--
Compound: CC(C)C[C@H](NC(=O)CNC(=O)[C@H](Cc1ccccc1)NC(=O)c1c(F)c(F)c(F)c(F)c1F)C(=O)N[C@@H](CCCNC(=N)N)C(=O)N[C@@H](Cc1c[nH]c2ccccc12)C(N)=O
Activity [%]: 0.6
--
Compound: CC(C)C[C@H](NC(=O)CNC(=O)[C@H](Cc1ccccc1)NC(=O)c1ccc(CNCc2ccccn2)cc1)C(=O)N[C@@H](CCCNC(=N)N)C(=O)N[C@@H](Cc1c[nH]c2ccccc12)C(N)=O
Activity [%]: 89.3
--
Compound: CC(C)C[C@H](NC(=O)CNC(=O)[C@H](Cc1ccccc1)NC(=O)c1cccc(O)c1)C(=O)N[C@@H](CCCNC(=N)N)C(=O)N[C@@H](Cc1c[nH]c2ccccc12)C(N)=O
Activity [%]: 99.7
--
Compound: CC(C)C[C@H](NC(=O)CNC(=O)[C@H](Cc1ccccc1)NC(=O)c1cccnc1)C(=O)N[C@@H](CCCNC(=N)N)C(=O)N[C@@H](Cc1c[nH]c2ccccc12)C(N)=O
Activity [%]: 93.5

Which Activity is listed for CC(C)C[C@H](NC(=O)CNC(=O)[C@H](Cc1ccccc1)NC(=O)c1cccc(N)c1)C(=O)N[C@@H](CCCNC(=N)N)C(=O)N[C@@H](Cc1c[nH]c2ccccc12)C(N)=O (H-[3Abz]FGLRW-NH2) ? 88.5

Consider the compound CC(C)C[C@H](NC(=O)CNC(=O)[C@H](Cc1ccccc1)NC(=O)c1ccccc1N)C(=O)N[C@@H](CCCNC(=N)N)C(=O)N[C@@H](Cc1c[nH]c2ccccc12)C(N)=O (H-[2Abz]FGLRW-NH2) and give its measured Activity. 94

Given `CC(C)C[C@H](NC(=O)CNC(=O)[C@H](Cc1ccccc1)NC(=O)c1cc(O)c(O)c(O)c1)C(=O)N[C@@H](CCCNC(=N)N)C(=O)N[C@@H](Cc1c[nH]c2ccccc12)C(N)=O` , state its recorded Activity. 1

Consider the compound CC(=O)NCc1ccc(C(=O)N[C@@H](Cc2ccccc2)C(=O)NCC(=O)N[C@@H](CC(C)C)C(=O)N[C@@H](CCCNC(=N)N)C(=O)N[C@@H](Cc2c[nH]c3ccccc23)C(N)=O)cc1 (Ac-[4Amb]FGLRW-NH2) and give its measured Activity. 101

Look up Activity for this compound: CC(C)C[C@H](NC(=O)CNC(=O)[C@H](Cc1ccccc1)NC(=O)c1ccc(CN)cc1)C(=O)N[C@@H](CCCNC(=N)N)C(=O)N[C@@H](Cc1c[nH]c2ccccc12)C(N)=O (H-[4Amb]FGLRW-NH2) 96.5

# get_value(readout='Activity', item= `CC(C)C[C@H](NC(=O)CNC(=O)[C@H](Cc1ccccc1)NC(=O)c1ccncc1)C(=O)N[C@@H](CCCNC(=N)N)C(=O)N[C@@H](Cc1c[nH]c2ccccc12)C(N)=O` ) 102

So what does the record say about Activity for `CC(C)C[C@H](NC(=O)CNC(=O)[C@H](Cc1ccccc1)NC(=O)c1ccc(F)cc1)C(=O)N[C@@H](CCCNC(=N)N)C(=O)N[C@@H](Cc1c[nH]c2ccccc12)C(N)=O` ? 95.6

Query: Activity; subject: `CC(C)C[C@H](NC(=O)CNC(=O)[C@H](Cc1ccccc1)NC(=O)c1ccc[nH]1)C(=O)N[C@@H](CCCNC(=N)N)C(=O)N[C@@H](Cc1c[nH]c2ccccc12)C(N)=O` 95.8

# get_value(readout='Activity', item= CC(C)C[C@H](NC(=O)CNC(=O)[C@H](Cc1ccccc1)NC(=O)[C@H]1CC[C@H](CN)CC1)C(=O)N[C@@H](CCCNC(=N)N)C(=O)N[C@@H](Cc1c[nH]c2ccccc12)C(N)=O (H-[Trx]FGLRW-NH2) ) 9.9

Activity lookup needed for `CC(C)C[C@H](NC(=O)CNC(=O)[C@H](Cc1ccccc1)NC(=O)c1ccccc1OC(=O)c1ccccc1O)C(=O)N[C@@H](CCCNC(=N)N)C(=O)N[C@@H](Cc1c[nH]c2ccccc12)C(N)=O` , thanks. 92.1

So what does the record say about Activity for `CC(C)C[C@H](NC(=O)CNC(=O)[C@H](Cc1ccccc1)NC(=O)c1ccc(NC(=N)N)cc1)C(=O)N[C@@H](CCCNC(=N)N)C(=O)N[C@@H](Cc1c[nH]c2ccccc12)C(N)=O` ? 91.2

Item `CC(C)C[C@H](NC(=O)CNC(=O)[C@H](Cc1ccccc1)NC(=O)c1ccc(CNC(=N)N)cc1)C(=O)N[C@@H](CCCNC(=N)N)C(=O)N[C@@H](Cc1c[nH]c2ccccc12)C(N)=O` has what recorded Activity? 93.7

----------
- Experimental Target: KiSS-1 receptor (Homo sapiens)
- Assay Method Text: Agonist activity at GPR54 expressed in CHO cells assessed as intracellular calcium mobilization
- Type: functional, cell-based
pEC50: −log10 of the molar value.
Reported Endpoint: pEC50

Line Notation: CC(C)C[C@H](NC(=O)CNC(=O)[C@H](Cc1ccccc1)NC(=O)c1c(F)c(F)c(F)c(F)c1F)C(=O)N[C@@H](CCCNC(=N)N)C(=O)N[C@@H](Cc1c[nH]c2ccccc12)C(N)=O
Reported Endpoint: pEC50
Assay Result: < 7.00

Line Notation: CC(C)C[C@H](NC(=O)CNC(=O)[C@H](Cc1ccccc1)NC(=O)c1ccccc1OC(=O)c1ccccc1O)C(=O)N[C@@H](CCCNC(=N)N)C(=O)N[C@@H](Cc1c[nH]c2ccccc12)C(N)=O
Reported Endpoint: pEC50
Assay Result: 8.52

Okay, now this compound:
Which measured pEC50 belongs to `CC(C)C[C@H](NC(=O)CNC(=O)[C@H](Cc1ccccc1)NC(=O)c1cc(O)c(O)c(O)c1)C(=O)N[C@@H](CCCN=C(N)N)C(=O)N[C@@H](Cc1c[nH]c2ccccc12)C(N)=O` , tested on KiSS-1 receptor (Homo sapiens)? < 7.00

----------
- Experimental Target: KiSS-1 receptor (Homo sapiens, UniProt Q969F8)
- Assay Method Text: Ratio of EC50 of drug for GPR54 to EC50 of KP-10 for GPR54
- Type: functional
Square brackets hold non-standard residues; d marks the D form. Peptide text beside a SMILES is read from it. 4Amb = NCc1ccc(C(=O)O)cc1; 2Abz = Nc1ccccc1C(=O)O
Reported Endpoint: Ratio EC50
// no unit string in output, number only

Reference set, count: 5
Compound: CC(C)C[C@H](NC(=O)CNC(=O)[C@H](Cc1ccccc1)NC(=O)c1cccnc1)C(=O)N[C@@H](CCCNC(=N)N)C(=O)N[C@@H](Cc1c[nH]c2ccccc12)C(N)=O
Ratio EC50: 4.1
--
Compound: CC(C)C[C@H](NC(=O)CNC(=O)[C@H](Cc1ccccc1)NC(=O)c1ccccc1OC(=O)c1ccccc1O)C(=O)N[C@@H](CCCNC(=N)N)C(=O)N[C@@H](Cc1c[nH]c2ccccc12)C(N)=O
Ratio EC50: 4
--
Compound: CC(C)C[C@H](NC(=O)CNC(=O)[C@H](Cc1ccccc1)NC(=O)c1ccccc1O)C(=O)N[C@@H](CCCNC(=N)N)C(=O)N[C@@H](Cc1c[nH]c2ccccc12)C(N)=O
Ratio EC50: 6.6
--
Compound: CC(C)C[C@H](NC(=O)CNC(=O)[C@H](Cc1ccccc1)NC(=O)c1ccc(CNCc2ccccc2)cc1)C(=O)N[C@@H](CCCNC(=N)N)C(=O)N[C@@H](Cc1c[nH]c2ccccc12)C(N)=O
Ratio EC50: 5.6
--
Compound: CC(C)C[C@H](NC(=O)CNC(=O)[C@H](Cc1ccccc1)NC(=O)c1cccc(O)c1)C(=O)N[C@@H](CCCNC(=N)N)C(=O)N[C@@H](Cc1c[nH]c2ccccc12)C(N)=O
Ratio EC50: 1.6

I'm curious: which Ratio EC50 was measured for `CC(C)C[C@H](NC(=O)CNC(=O)[C@H](Cc1ccccc1)NC(=O)c1ccc(NC(=N)N)cc1)C(=O)N[C@@H](CCCNC(=N)N)C(=O)N[C@@H](Cc1c[nH]c2ccccc12)C(N)=O` tested on KiSS-1 receptor (Homo sapiens, UniProt Q969F8)? 2.9

Please state recorded Ratio EC50 (tested on KiSS-1 receptor (Homo sapiens, UniProt Q969F8)) of CC(C)C[C@H](NC(=O)CNC(=O)[C@H](Cc1ccccc1)NC(=O)c1ccc(CN)cc1)C(=O)N[C@@H](CCCNC(=N)N)C(=O)N[C@@H](Cc1c[nH]c2ccccc12)C(N)=O (H-[4Amb]FGLRW-NH2) 3.4

Write down the reported Ratio EC50 of CC(C)C[C@H](NC(=O)CNC(=O)[C@H](Cc1ccccc1)NC(=O)c1ccccc1N)C(=O)N[C@@H](CCCNC(=N)N)C(=O)N[C@@H](Cc1c[nH]c2ccccc12)C(N)=O (H-[2Abz]FGLRW-NH2) , test system: KiSS-1 receptor (Homo sapiens, UniProt Q969F8). 2.8

What is its Ratio EC50 for KiSS-1 receptor (Homo sapiens, UniProt Q969F8)? Entry: `CC(C)C[C@H](NC(=O)CNC(=O)[C@H](Cc1ccccc1)NC(=O)c1ccncc1)C(=O)N[C@@H](CCCNC(=N)N)C(=O)N[C@@H](Cc1c[nH]c2ccccc12)C(N)=O` 2.4
